B1: NR2F2 (parent)
chain: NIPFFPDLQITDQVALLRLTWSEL

- Variants of: B1
- assay.name: protein stability index of a GFP-peptide fusion (GPS, HEK-293T) (PSI 1-6); higher = more stable;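 further: lentivirally expressed fusions sorted by FACS into six bins by GFP to DsRed ratio, PSI derived from sequencing read proportions per bin multiplied by bin number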
- test.context: c terminus: a fixed tail appended
Record form. Attribute: protein stability index. Fill in for each entry.

Qu. Would you kindly share the measured protein stability index for NIPFFPDLQITDQVALLRLTWEEL ?
Ans. 2.1

Qu. Would you kindly share the measured protein stability index for NIPFFPDLQITDQVALTRLTWSEL ?
Ans. 3.49

Qu. Would you kindly share the measured protein stability index for NYPFFPDLQITDQVALLRLTWSEL ?
Ans. 1.47

Qu. Would you kindly share the measured protein stability index for NIPFFPDLQITDQVALLRLTNSEL ?
Ans. 2.37

Qu. Would you kindly share the measured protein stability index for NIPFFPDLQLTDQVALLRLTWSEL ?
Ans. 2.47

Qu. Would you kindly share the measured protein stability index for NIPFFPDLQITDQVALLILTWSEL ?
Ans. 3.87

Qu. Would you kindly share the measured protein stability index for NIPFFPDLNITDQVALLRLTWSEL ?
Ans. 2.63

Qu. Would you kindly share the measured protein stability index for NIPFFGDLQITDQVALLRLTWSEL ?
Ans. 3.94

Qu. Would you kindly share the measured protein stability index for NIPFFPDTQITDQVALLRLTWSEL ?
Ans. 2.73

Qu. Would you kindly share the measured protein stability index for NIPFFPDFQITDQVALLRLTWSEL ?
Ans. 3.11

Qu. Would you kindly share the measured protein stability index for NIPFFPDLRITDQVALLRLTWSEL ?
Ans. 2.36
